This collection of values is drawn from paper PMC3642127.

Target: T1, TRBP-WT (human, UniProt Q15633 1-366)
T1 sequence: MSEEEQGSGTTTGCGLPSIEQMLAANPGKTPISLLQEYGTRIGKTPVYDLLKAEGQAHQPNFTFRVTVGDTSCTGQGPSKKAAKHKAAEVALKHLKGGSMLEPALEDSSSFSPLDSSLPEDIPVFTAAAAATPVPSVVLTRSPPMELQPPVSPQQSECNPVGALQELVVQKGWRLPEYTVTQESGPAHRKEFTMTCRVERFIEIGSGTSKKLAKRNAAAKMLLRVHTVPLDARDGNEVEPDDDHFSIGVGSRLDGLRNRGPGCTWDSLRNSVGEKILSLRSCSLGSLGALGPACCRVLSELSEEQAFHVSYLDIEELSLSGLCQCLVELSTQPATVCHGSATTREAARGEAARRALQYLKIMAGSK
Experiment: EMSA; complex 1 (monomer); EMSA: 20 mM Tris pH 7.5, 150 mM NaCl, 2 mM EDTA, 1 mM 2-mercaptoethanol, 1 mM DTT, 50 ng/ul salmon sperm DNA, 0.4 U/ul RNasin, 0.5 nM 32P-siRNA, 30 min on ice
Settings: protein: recombinant; tags: N-His6;C-myc; label: 32P guide strand; 2 nt 3' overhangs
Listed next: entries and their corresponding Kd.
observable: Kd (nM)

binder	measurement_units	assay_result
siLuc-30 (dsRNA) RNA 1: UCUUCAUAGAAUGGCGCCGGG RNA 2: CGGCGCCAUUCUAUGAAGAUG	nM	6.2
siLuc2-153 (dsRNA) RNA 1: UCGAAGUAUUCCGCGUACGUG RNA 2: CGUACGCGGAAUACUUCGAUU	nM	4
siLuc-36 (dsRNA) RNA 1: UCUUCCAGCGGAUAGAAUGGC RNA 2: CAUUCUAUCCGCUGGAAGAUG	nM	5.3
